Consider the following compounds and their measured Papp A→B at 2 h readings.
- METHOD: Bidirectional transport assay on Caco-2 cell monolayers
- CONDITION INFO: human, Caco-2, pH 7.4, A→B Transport Papp, compound 1, 1a 2 μM, digoxin 10 μM; 2 h; pH 7.40
ENDPOINT: Papp A→B at 2 h (×10⁻⁶ cm/s)

>  <COMPOUND>
C[C@H]1O[C@@H](O[C@H]2[C@@H](O)C[C@H](O[C@H]3[C@@H](O)C[C@H](O[C@H]4CC[C@@]5(C)[C@H](CC[C@@H]6[C@@H]5C[C@@H](O)[C@]5(C)[C@@H](C7=CC(=O)OC7)CC[C@]65O)C4)O[C@@H]3C)O[C@@H]2C)C[C@H](O)[C@@H]1O [Digoxin, reference compound]

>  <ENDPOINT>
Papp A→B at 2 h

>  <UNIT OF MEASUREMENT>
×10⁻⁶ cm/s

>  <REPORTED MEASUREMENT>
0.12

$$$$
>  <COMPOUND>
CC(O)C1(O)CCC2(O)C3CCC4CC(OC(=O)c5cccnc5)CCC4(C)C3CC(OC(=O)C=Cc3ccccc3)C12C (stereo not drawn)

>  <ENDPOINT>
Papp A→B at 2 h

>  <UNIT OF MEASUREMENT>
×10⁻⁶ cm/s

>  <REPORTED MEASUREMENT>
0.27

$$$$
>  <COMPOUND>
CC(O)C1(O)CCC2(O)C3CCC4CC(O)CCC4(C)C3CC(OC(=O)C=Cc3ccccc3)C12C (stereo not drawn)

>  <ENDPOINT>
Papp A→B at 2 h

>  <UNIT OF MEASUREMENT>
×10⁻⁶ cm/s

>  <REPORTED MEASUREMENT>
9.28

$$$$

----------
- METHOD: Bidirectional transport assay on Caco-2 cell monolayers
- CONDITION INFO: human, Caco-2, pH 7.4

>  <COMPOUND>
C[C@H]1O[C@@H](O[C@H]2[C@@H](O)C[C@H](O[C@H]3[C@@H](O)C[C@H](O[C@H]4CC[C@@]5(C)[C@H](CC[C@@H]6[C@@H]5C[C@@H](O)[C@]5(C)[C@@H](C7=CC(=O)OC7)CC[C@]65O)C4)O[C@@H]3C)O[C@@H]2C)C[C@H](O)[C@@H]1O [Digoxin, reference compound]

>  <UNIT OF MEASUREMENT>
×10⁻⁶ cm/s

>  <Papp B→A at 2 h>
22.3

$$$$
>  <COMPOUND>
CC(O)C1(O)CCC2(O)C3CCC4CC(O)CCC4(C)C3CC(OC(=O)C=Cc3ccccc3)C12C (stereo not drawn)

>  <UNIT OF MEASUREMENT>
×10⁻⁶ cm/s

>  <Papp B→A at 2 h>
7.71

$$$$
>  <COMPOUND>
CC(O)C1(O)CCC2(O)C3CCC4CC(OC(=O)c5cccnc5)CCC4(C)C3CC(OC(=O)C=Cc3ccccc3)C12C (stereo not drawn)

>  <UNIT OF MEASUREMENT>
×10⁻⁶ cm/s

>  <Papp B→A at 2 h>
0.24

$$$$

----------
- METHOD: Bidirectional transport assay on Caco-2 cell monolayers
- CONDITION INFO: human, Caco-2, pH 7.4, Apparent permeability coefficient (Papp) from AP to BL, 2 μM, 2 h
ENDPOINT: Papp A→B at 2 h, 2 μM (×10⁻⁶ cm/s)

>  <COMPOUND>
CC(O)C1(O)CCC2(O)C3CCC4CC(OC(=O)c5cccnc5)CCC4(C)C3CC(OC(=O)C=Cc3ccccc3)C12C (centres unmarked) [Compound 1a]

>  <UNIT OF MEASUREMENT>
×10⁻⁶ cm/s

>  <REPORTED MEASUREMENT>
0.27

$$$$
>  <COMPOUND>
CC(O)C1(O)CCC2(O)C3CCC4CC(O)CCC4(C)C3CC(OC(=O)C=Cc3ccccc3)C12C (centres unmarked) [Compound 1]

>  <UNIT OF MEASUREMENT>
×10⁻⁶ cm/s

>  <REPORTED MEASUREMENT>
9.28

$$$$

----------
# Lookup of reported recovery at 2 h keyed by entry
- METHOD: Bidirectional transport assay on Caco-2 cell monolayers
- CONDITION INFO: human, Caco-2, pH 7.4, B→A Transport Solution Recovery %, compound 1, 1a 2 μM, digoxin 10 μM; 2 h
ENDPOINT: recovery at 2 h (%)

>  <MOLECULE>
CC(O)C1(O)CCC2(O)C3CCC4CC(O)CCC4(C)C3CC(OC(=O)C=Cc3ccccc3)C12C (stereo not drawn)

>  <ENDPOINT>
recovery at 2 h

>  <UNIT OF MEASUREMENT>
%

>  <REPORTED MEASUREMENT>
50.4

$$$$
>  <MOLECULE>
C[C@H]1O[C@@H](O[C@H]2[C@@H](O)C[C@H](O[C@H]3[C@@H](O)C[C@H](O[C@H]4CC[C@@]5(C)[C@H](CC[C@@H]6[C@@H]5C[C@@H](O)[C@]5(C)[C@@H](C7=CC(=O)OC7)CC[C@]65O)C4)O[C@@H]3C)O[C@@H]2C)C[C@H](O)[C@@H]1O [Digoxin, reference compound]

>  <ENDPOINT>
recovery at 2 h

>  <UNIT OF MEASUREMENT>
%

>  <REPORTED MEASUREMENT>
94.4

$$$$
>  <MOLECULE>
CC(O)C1(O)CCC2(O)C3CCC4CC(OC(=O)c5cccnc5)CCC4(C)C3CC(OC(=O)C=Cc3ccccc3)C12C (stereo not drawn)

>  <ENDPOINT>
recovery at 2 h

>  <UNIT OF MEASUREMENT>
%

>  <REPORTED MEASUREMENT>
12.2

$$$$
